Parameter inhibition: see the listing below.
# study_target: Serine/threonine-protein kinase MARK1 (Homo sapiens);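 further: reported values are mean percent inhibition of MARK1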
# assay_setup: at 1 µM

Examples with answers:
| compound_structure | experimental_result |
| --- | --- |
| NC(=O)c1cccc(Nc2nccc(Nc3cccc(F)c3)n2)c1 | 2.94% |
| c1ccc(Nc2ncc(-c3ccccc3)o2)cc1 | 4.58% |
| COc1cccc(-n2ncc3c(N/N=C/c4ccc(C)cc4)ncnc32)c1 | 6.21% |
| Cc1ccc2c(c1)/C(=N/Nc1ccc(S(N)(=O)=O)cc1)C(=O)N2 | 3.86% |
| COC(=O)c1cncc(/C=C/c2c(C)cc(O)cc2C)c1 | 2.79% |

Output inhibition of Cc1ccc(O)cc1Nc1ccnc2ccc(S(C)(=O)=O)cc12
7.33%

Output inhibition of CS(=O)(=O)CCNCc1nc(-c2ccc3ncnc(Nc4ccc(OCc5cccc(C(F)(F)F)c5)cc4)c3c2)cs1
1.98%

Output inhibition of COc1cc(Nc2nccc(-c3cnn4ncccc34)n2)cc(OC)c1
32.3%

Output inhibition of C[C@@H](Oc1cc(-n2cnc3ccc(OC[C@@H](O)CO)cc32)sc1C(N)=O)c1ccccc1Cl
5.71%

Output inhibition of CN(c1ccc(NC(=O)Nc2ccc(OC(F)(F)F)cc2)cc1)c1ccnc(Nc2cccc(S(N)(=O)=O)c2)n1
2.36%

Output inhibition of C[C@@H](Oc1cc(-n2cnc3ccc(OCC4CCN(C)CC4)cc32)sc1C(N)=O)c1ccccc1C(F)(F)F
50.7%

Output inhibition of COc1ccc(-c2nn3ncccc3c2-c2ccnc(Nc3cccc(C(F)(F)F)c3)n2)cc1
3.55%

Output inhibition of c1ccc(Cc2nc3ccc(Nc4ncnc5ccccc45)cc3[nH]2)cc1
6.13%

Output inhibition of CN1CCN(C(=O)c2ccc(NC(=O)Nc3ccc(N(C)c4ccnc(Nc5ccc(CS(C)(=O)=O)cc5)n4)cc3)cc2)CC1
15.2%

Output inhibition of CCS(=O)(=O)c1ccc(OC)c(Nc2ncc(-c3cccc(OC)c3)o2)c1
2.37%

Output inhibition of COc1cc2ncn(-c3cc(OCc4ccccc4S(C)(=O)=O)c(C#N)s3)c2cc1OC
80%

Output inhibition of Cc1cc(O)cc(C)c1/C=C/c1cncc(C(=O)N(C)C)c1
1.29%

Output inhibition of Cc1cc(-c2ccccn2)cc(C)c1/C=C/c1cncc(-c2nn[nH]n2)c1
4.82%

Output inhibition of CC(C)c1ccc2c(c1)NC(=O)/C2=N/Nc1ccc(S(N)(=O)=O)cc1
0.9%

Output inhibition of Cc1ccc(NC(=O)CC2CC2)cc1-c1ccc(C(=O)NCC2CC2)cc1
2.04%
